Biological target: hKCNQ2/3 (Homo sapiens, UniProt O43525+O43526)
Test: Fluorescence assay using a voltage sensitive dye (BMG)
Conditions: CHO-K1 cells expressing KCNQ2/3
EC50 listing for selected compounds.
Property: EC50 (µM)

> print(dat)
                                   compound  display.unit  experimental.result
1  CC(NC(=O)CCC(=O)N1CCn2cccc2C1c1ccccc1)c1cccc(C(F)(F)F)c1 (stereo not drawn) [Example 81]            µM                 2.95
2  O=C(CN1CCn2cccc2C1c1ccc2c(c1)OCCO2)NCc1cccc(C(F)(F)F)c1 (stereo not drawn) [Example 8]            µM                 2.97
3  O=C(CCC(=O)N1CCn2cccc2C1c1ccccc1)NCc1cccs1 (stereo not drawn) [Example 83]            µM                 14.3
4  CC(NC(=O)CCC(=O)N1CCn2cccc2C1c1cccs1)c1cccc(C(F)(F)F)c1 (stereo not drawn) [Example 82]            µM                 5.28
5  O=C(CC(=O)N1CCn2cccc2C1c1ccccc1)NCc1cccc(C(F)(F)F)c1 (stereo not drawn) [Example 89]            µM                 4.55
6  CC1c2cccn2CCN1C(=O)CCC(=O)NCc1cccc(C(F)(F)F)c1 (stereo not drawn) [Example 86]            µM                 11.6

====

Molecular target: hKCNQ2/3 (Homo sapiens, UniProt O43525+O43526)
Test: Fluorescence assay using a voltage sensitive dye (BMG)
Type: cell-based
Conditions: agonistic activity at 10 μM, CHO-K1 cells expressing KCNQ2/3; read-out: BMG AG %@10 μm
Property: activation at 10 µM (%)

> print(dat)
                                   compound             property  display.unit  experimental.result
1  O=C(CCCc1ccccc1)NCC(=O)N1CCn2cccc2C1c1ccccc1 (stereo not drawn)  activation at 10 µM             %                    5
2  O=C(/C=C/c1ccccc1F)NCC(=O)N1CCn2cccc2C1c1ccccc1 (stereo not drawn)  activation at 10 µM             %                    7
3  Cc1cccc(C2c3cccn3CCN2C(=O)CCC(=O)NCc2cccc(C(F)(F)F)c2)c1 (stereo not drawn)  activation at 10 µM             %                   28
4  CC1c2cccn2CCN1C(=O)CCC(=O)NCc1ccc(F)cc1 (stereo not drawn)  activation at 10 µM             %                    0
5  O=C(CC(=O)N1CCn2cccc2C1c1ccccc1)Nc1cccc(C(F)(F)F)c1 (stereo not drawn)  activation at 10 µM             %                  -20
6  COc1cccc(C2c3cccn3CCN2CC(=O)NCc2cccc(C(F)(F)F)c2)c1 (stereo not drawn)  activation at 10 µM             %                   21
7  Cc1ccc(C2c3cccn3CCN2CC(=O)NCc2cccc(C(F)(F)F)c2)cc1 (stereo not drawn)  activation at 10 µM             %                   24
8  O=C(CN1CCn2cccc2C1c1ccccc1)NCc1cccc(C(F)(F)F)c1 (stereo not drawn)  activation at 10 µM             %                    9
9  O=C(CCc1cccc(C(F)(F)F)c1)NCC(=O)N1CCn2cccc2C1c1ccccc1 (stereo not drawn)  activation at 10 µM             %                    3

====

Molecular target: hKCNQ2/3 (Homo sapiens, UniProt O43525+O43526)
Assay: Fluorescence assay using a voltage sensitive dye (BMG)
Assay type: cell-based
Conditions: agonistic activity at 10 μM, CHO-K1 cells expressing KCNQ2/3; read-out: BMG AG %@10 μm
activation at 10 µM listing for selected compounds.
Property: activation at 10 µM (%)

> print(dat)
                                   compound                                       tgt  experimental.result
1  O=C(CCC(=O)N1CCn2cccc2C1c1ccc(Cl)cc1)NCc1cccc(C(F)(F)F)c1 (stereo not drawn)  hKCNQ2/3 (Homo sapiens, UniProt O43525+O43526)                   69
2  O=C(CCC(=O)N1CCn2cccc2C1c1ccccc1)NCc1cccc(C(F)(F)F)c1 (stereo not drawn)  hKCNQ2/3 (Homo sapiens, UniProt O43525+O43526)                   84
3  CC(NC(=O)CCC(=O)N1CCn2cccc2C1Cc1ccccc1)c1cccc(C(F)(F)F)c1 (stereo not drawn)  hKCNQ2/3 (Homo sapiens, UniProt O43525+O43526)                   10

From: patent US8017772B2
